conditions: in sec-butanol, 288.15 K
value kind: solubility (mole fraction)

>>> recorded_number("O=C1c2cccc(O)c2C(=O)c2c(O)cc(CO)cc21")
"2.71e-05"

----------
settings: in ethanol, 278.15 K
value kind: solubility (mole fraction)

>>> result("O=C1c2cccc(O)c2C(=O)c2c(O)cc(CO)cc21")
"1.72e-05"

----------
settings: in n-butanol, 298.15 K
value kind: solubility (mole fraction)

>>> recorded_number("O=C1c2cccc(O)c2C(=O)c2c(O)cc(CO)cc21")
"9.05e-05"

----------
details: in methanol, 283.15 K
value kind: solubility (mole fraction)

>>> recorded_number("O=C1c2cccc(O)c2C(=O)c2c(O)cc(CO)cc21")
"2.23e-06"
